Items are presented alongside their recorded koff.
Target: T1, full-length Sudan GP (GPFL) (Sudan virus (SUDV), UniProt Q7T9D9 33-650)
T1 construct: also called Sudan GPFL; GP(S)FL
T1 sequence: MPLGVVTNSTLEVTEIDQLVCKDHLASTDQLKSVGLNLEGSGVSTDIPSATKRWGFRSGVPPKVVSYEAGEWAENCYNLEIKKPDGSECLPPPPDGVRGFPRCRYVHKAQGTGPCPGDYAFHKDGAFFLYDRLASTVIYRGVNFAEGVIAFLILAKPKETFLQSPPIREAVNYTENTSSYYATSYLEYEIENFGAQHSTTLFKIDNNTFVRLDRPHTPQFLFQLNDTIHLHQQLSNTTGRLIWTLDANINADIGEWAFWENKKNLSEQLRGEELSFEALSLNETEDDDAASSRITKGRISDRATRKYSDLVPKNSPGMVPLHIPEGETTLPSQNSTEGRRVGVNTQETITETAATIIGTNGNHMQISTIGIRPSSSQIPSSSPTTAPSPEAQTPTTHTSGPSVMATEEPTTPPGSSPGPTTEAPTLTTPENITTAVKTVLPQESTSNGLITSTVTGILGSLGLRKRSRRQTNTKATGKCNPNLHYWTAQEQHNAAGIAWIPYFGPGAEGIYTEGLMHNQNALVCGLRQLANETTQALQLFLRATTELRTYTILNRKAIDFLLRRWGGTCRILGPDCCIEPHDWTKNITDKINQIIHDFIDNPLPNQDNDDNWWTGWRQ
Test: BLI, Fab, pH 5.3

- binder: "Fab generated from 503S (Fab, V domains shown, also called 503S Fab) VH: QVQLVQSGAEVKKPGASVRVSCKASGYTFTSYYMHWVRQAPGQGLEWMGQINPSGGTTRYERKFQGRITVTRDTSTSTVYLELSSLRSEDTASYFCACLRDKVTYYDLWSGVDSVWGQGTLVTVSS VL: DIQMTQSPSSLSASVGDRVTITCRASQDISTWLAWYQQKPEKAPKSLIYAASTLETGVPSRFSGSGSGTDFTLTISSLQPEDFATYYCEQYNGFPRTFGQGTKLDIK"
  koff: "0.000373 s⁻¹"
- binder: "Fab generated from 354S (Fab, V domains shown, also called 354S Fab) VH: QVQLVQSGAEVKKPGASVKVSCKASGYSFASYYIHWVRQAPGQGLEWMGIINPSGGTTSYAQKFQGRVTMTRDTSTSTVYMELSSLGSEDTAVYYCARIVDRVTIYLNGVDNYWGQGTLVTVSS VL: EIVMTQSPATLSVSPGERVTLSCRASQSVSSNLAWFQQTPGQAPRLLIYGASTRASGVPARFSGSGSGTEFTLTISSLQSEDFAVYYCLQYNNWPPGWKYGFGQGTKLEIK"
  koff: "0.000445 s⁻¹"
- binder: "Fab generated from 573S (Fab, V domains shown, also called 573S Fab) VH: EVQLVESGGGLVKPGGSLRLSCAASGFTFSSYTMNWVRQAPGKGLEWVSCIRSSSSDKYYADSVKGRFTISRDNTKNSLYLQMNSLRADDTAVYYCARDLGGANNRYYFDYGMDVWGQGTTVTVSS VL: EIVMTQSPATLSVSPGGRATLSCRASQSVYTNLAWYQQKPGQAPRLLIYDASTRATGIPARFSGSGSGTEFTLTISSLQCEDFAVYYCQHYNNWPLYTFGQGTKLEIK"
  koff: "0.000105 s⁻¹"
